Data origin, for the record: PubChem BioAssay (NCI)

# Procedure Text: NCI Yeast Anticancer Drug Screen. Data for the sgs1 mgt1 strain (AID 161)
# Experimental Conditions: S. cerevisiae sgs1 mgt1 strain, at 50.0 µM
This is part of a sample that, as a whole, favours compounds with a hit. Of some 79,000 tested, about 15% had one in any assay. Activity calls are given as the source filed them. Rule as the data show it: active = growth inhibition above about 70%; inactive = the rest.
Result category, one only: active, inactive

Query: Hi, sorry to bother you, what did the test record for `CCn1c(C)nc2c(N)cccc2c1=O` ?
Result: inactive

Query: Hi, sorry to bother you, what did the test record for CSC1C(OC(=O)c2ccccc2)C(COC(=O)c2ccccc2)OC1n1cnc2ncnc(NC(=O)c3ccccc3)c21 (stereo not drawn) ?
Result: inactive

Query: Hi, sorry to bother you, what did the test record for `COc1ccc(OC)c2cc(C3(C)SCCCS3)ccc12` ?
Result: inactive

Query: Hi, sorry to bother you, what did the test record for CC(C)CC(NC(=O)C(C)NC(=O)C(NC(=O)OCc1ccccc1)C(C)O)C(=O)NC(CC(C)C)C(=O)NCC(=O)NN (stereo not drawn) ?
Result: inactive

Query: Hi, sorry to bother you, what did the test record for `O=c1cc(-c2ccccc2)c2cc3c(=O)ccoc3cc2o1` ?
Result: inactive

Query: Hi, sorry to bother you, what did the test record for `Cc1cc(C)c2[nH]c(=O)c(C)c(C)c2c1Br` ?
Result: inactive

Query: Hi, sorry to bother you, what did the test record for `CCN(C)c1ccccc1` ?
Result: inactive

Query: Hi, sorry to bother you, what did the test record for O=S(=O)(O)C(O)c1ccncc1 (stereo not drawn) ?
Result: inactive

Query: Hi, sorry to bother you, what did the test record for CC(=O)NC1=NN(C(C)=O)C(C)(c2ccccc2)S1=O (stereo not drawn) ?
Result: inactive

Query: Hi, sorry to bother you, what did the test record for N#CCCNC(CC(=O)O)C(=O)O (stereo not drawn) ?
Result: inactive

Query: Hi, sorry to bother you, what did the test record for `Cc1cc2cc(Cl)ccc2nc1C(=O)c1ccccc1` ?
Result: inactive

Query: Hi, sorry to bother you, what did the test record for `CC(=O)OCC(COC(C)=O)C(C)=O` ?
Result: inactive

Query: Hi, sorry to bother you, what did the test record for `CC(C)c1ccc(/C=C/C(=O)c2ccc(F)cc2)cc1` ?
Result: inactive

Query: Hi, sorry to bother you, what did the test record for CCC(O)(c1ccc(OC)cc1)C(c1ccc(OCc2ccccc2)cc1)c1ccc(OCc2ccccc2)cc1 (stereo not drawn) ?
Result: inactive

Query: Hi, sorry to bother you, what did the test record for COC1(OC)C2(Cl)C(Cl)=C(Cl)C1(Cl)C1CCCCCC12 (stereo not drawn) ?
Result: inactive

Query: Hi, sorry to bother you, what did the test record for `COc1ccc(N2C(=O)/C(=C/c3ccc(N(CCC#N)CCC#N)cc3C)N=C2c2cc([N+](=O)[O-])ccc2Cl)cc1` ?
Result: inactive

Query: Hi, sorry to bother you, what did the test record for O=C(O)c1ccc(CS(=O)c2ccccc2)c([N+](=O)[O-])c1 (stereo not drawn) ?
Result: inactive

Query: Hi, sorry to bother you, what did the test record for `NOCc1ccc(OCc2ccccc2)cc1` ?
Result: inactive

Query: Hi, sorry to bother you, what did the test record for O=C(c1ccc(Cl)cc1)C1C(c2ccccc2)C1[N+](=O)[O-] (stereo not drawn) ?
Result: inactive

Query: Hi, sorry to bother you, what did the test record for `CSC1(SC)CCCCCCCCCCC1` ?
Result: inactive

Query: Hi, sorry to bother you, what did the test record for C/C(=N/NC(N)=O)C1C2CC3C(C2Cl)C31 (stereo not drawn) ?
Result: inactive

Query: Hi, sorry to bother you, what did the test record for `O=C(/C=C/c1ccccc1)NN1CCOCC1` ?
Result: inactive

Query: Hi, sorry to bother you, what did the test record for `O=C(c1cc2ccccc2s1)c1ccccc1Cc1cccc2ccccc12` ?
Result: inactive

Query: Hi, sorry to bother you, what did the test record for `O=[N+]([O-])c1ccc(CS(=O)(=O)c2cccs2)o1` ?
Result: inactive

Query: Hi, sorry to bother you, what did the test record for `CCCOC(=O)Nc1cccc(Cl)c1` ?
Result: inactive

Query: Hi, sorry to bother you, what did the test record for COC(=O)CC(=O)/C(=C/C(C/C=C(\C(=O)CC(=O)OC)C(=O)OC)OC)C(=O)OC (stereo not drawn) ?
Result: inactive

Query: Hi, sorry to bother you, what did the test record for `CC(=O)c1cccc2cc(CC(=O)c3ccccc3)c(=O)oc12` ?
Result: inactive

Query: Hi, sorry to bother you, what did the test record for `O=[N+]([O-])c1ccc(N/N=C/C2CCCCCC2)c([N+](=O)[O-])c1` ?
Result: inactive

Query: Hi, sorry to bother you, what did the test record for `COC(=O)C1(Cc2ccc3c(c2)CCC3)Cc2ccccc2C1` ?
Result: inactive

Query: Hi, sorry to bother you, what did the test record for `N=C1C(O)=CC(=O)C(O)=C1C(=O)O` ?
Result: inactive

Query: Hi, sorry to bother you, what did the test record for `CC(=O)Nc1cscc1NC(C)=O` ?
Result: inactive

Query: Hi, sorry to bother you, what did the test record for `COC(=O)c1nc(NN)[nH]c(=O)c1CCCCCc1c(C(=O)OC)[nH]c(NN)cc1=O` ?
Result: inactive

Query: Hi, sorry to bother you, what did the test record for CC1NC(C)c2ccc3ccccc3c2O1 (stereo not drawn) ?
Result: inactive

Query: Hi, sorry to bother you, what did the test record for `CCOC(=N)c1ccc(C(=N)OCC)cc1` ?
Result: inactive

Query: Hi, sorry to bother you, what did the test record for O=[N+]([O-])c1cccc(OCC2CO2)c1 (stereo not drawn) ?
Result: inactive

Query: Hi, sorry to bother you, what did the test record for Cc1cc(C)c(OCC(O)CO)c(C)c1 (stereo not drawn) ?
Result: inactive

Query: Hi, sorry to bother you, what did the test record for `CC(C)(C)c1ccc2c(c1)CNCCNCCNCc1cc(C(C)(C)C)ccc1OCC1(CO2)COc2ccc(C(C)(C)C)cc2CNCCNCCNCc2cc(C(C)(C)C)ccc2OC1` ?
Result: active

Query: Hi, sorry to bother you, what did the test record for `CCCC(=O)Oc1ccc2ccccc2c1` ?
Result: inactive

Query: Hi, sorry to bother you, what did the test record for `CCOc1ccc(CC(=O)Nc2cc([N+](=O)[O-])ccc2NCCN(CC)CC)cc1` ?
Result: inactive

Query: Hi, sorry to bother you, what did the test record for `CN(C)CCOC(=O)c1cccc(CCl)c1` ?
Result: inactive

Query: Hi, sorry to bother you, what did the test record for `CCOc1nc(N)nc(C)c1N=Nc1ccc(O)cc1` ?
Result: inactive

Query: Hi, sorry to bother you, what did the test record for `CCCCNCCS` ?
Result: inactive

Query: Hi, sorry to bother you, what did the test record for `CC(C)(C)c1cc(CN2CCOCC2)cc(C(C)(C)C)c1O` ?
Result: inactive

Query: Hi, sorry to bother you, what did the test record for `C[N+]1(C)CCC(C(=O)c2ccccc2)CC1` ?
Result: inactive

Query: Hi, sorry to bother you, what did the test record for `CN1CCCN(C(=O)N(c2ccccc2)c2ccccc2)CC1` ?
Result: inactive

Query: Hi, sorry to bother you, what did the test record for `COc1cc([C@@H]2c3cc4c(cc3[C@H](O)[C@H]3COC(=O)[C@@H]23)OCO4)cc(OC)c1OC` ?
Result: inactive

Query: Hi, sorry to bother you, what did the test record for `COc1cc2c(-c3cc(OC)c(OC)c(OC)c3)cc(C)[n+](C)c2cc1OC` ?
Result: inactive

Query: Hi, sorry to bother you, what did the test record for `O=[N+]([O-])c1ccc(/C=N\NC(=S)Nc2ccc3cn[nH]c3c2)cc1` ?
Result: inactive

====

# Procedure Text: NCI Yeast Anticancer Drug Screen. Data for the cln2 rad14 strain (AID 165)
# Experimental Conditions: S. cerevisiae cln2 rad14 strain, at 50.0 µM
About 79,000 compounds went through this panel and 15% of them were active in at least one assay; those are over-represented in the sample as a whole. Calls of active or inactive are those of the source. Rule as the data show it: active = growth inhibition above about 70%; inactive = the rest.
Result category, one only: t = active, f = inactive

Query: Hi, sorry to bother you, what did the test record for `COc1cc2c(c3c1c(=O)c1ccccc1n3C)C=CC1(CCCCC1)O2` ?
Result: t

Query: Hi, sorry to bother you, what did the test record for CC1OS(=O)OC1C (stereo not drawn) ?
Result: f

Query: Hi, sorry to bother you, what did the test record for `Cc1cc2nc3ccc(=[N+](C)C)cc-3sc2cc1N` ?
Result: f

Query: Hi, sorry to bother you, what did the test record for `COC(=O)CCC(=O)NCC(=O)OCc1ccccc1` ?
Result: f

Query: Hi, sorry to bother you, what did the test record for `CCOCCC(C)(OCC)OCC` ?
Result: f

Query: Hi, sorry to bother you, what did the test record for `COCCNC(=O)/C=C\C(=O)O` ?
Result: f

Query: Hi, sorry to bother you, what did the test record for `COc1ccc(OC)c2c(Nc3ccc(S(=O)(=O)O)c4cc(S(=O)(=O)O)cc(S(=O)(=O)O)c34)cc(C)nc12` ?
Result: f

Query: Hi, sorry to bother you, what did the test record for CC1(C(=O)O)CCCCCCC1O (stereo not drawn) ?
Result: f

Query: Hi, sorry to bother you, what did the test record for O=C(CC(=O)Nc1ccccc1)NNC(c1cc(N=Nc2ccc(Br)cc2)ccc1O)P(O)O (stereo not drawn) ?
Result: f

Query: Hi, sorry to bother you, what did the test record for `O=S1(=O)OCOS(=O)(=O)OCO1` ?
Result: f

Query: Hi, sorry to bother you, what did the test record for `C=CCN1C(=O)c2ccccc2C1=O` ?
Result: f

Query: Hi, sorry to bother you, what did the test record for `CC(C)CNN(CC(C)C)C(N)=O` ?
Result: f

Query: Hi, sorry to bother you, what did the test record for `COC(=O)CCS/C=C/C(=O)O` ?
Result: f
